- target entity: Aurora kinase A (Homo sapiens, UniProt O14965)
- Sequence (O14965 whole entry): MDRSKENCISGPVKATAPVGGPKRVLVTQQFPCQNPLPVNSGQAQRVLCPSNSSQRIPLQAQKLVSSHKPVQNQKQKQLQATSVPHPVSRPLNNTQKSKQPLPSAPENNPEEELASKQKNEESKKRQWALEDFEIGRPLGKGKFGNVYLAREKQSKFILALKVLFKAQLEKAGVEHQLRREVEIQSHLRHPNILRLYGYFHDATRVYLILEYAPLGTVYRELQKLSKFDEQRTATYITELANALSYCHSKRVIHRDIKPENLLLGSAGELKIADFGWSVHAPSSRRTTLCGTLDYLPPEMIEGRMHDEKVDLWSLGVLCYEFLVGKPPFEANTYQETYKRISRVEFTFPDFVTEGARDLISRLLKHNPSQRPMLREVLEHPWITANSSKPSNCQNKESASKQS
- measurement description: Inhibition of human full length Aurora A by Z'-LYTE assay
recorded metric: IC50 (nM)
Respond numerically; units are nM and should not be typed.

>  <line notation>
CN(C(=O)c1ccccc1)c1ccc2[nH]c(-c3n[nH]c4ccccc34)cc2n1

>  <IC50 / nM>
32

$$$$

Turning to the following compound.
input: Can you share its IC50? I mean this compound: CN(C(=O)Nc1ccccc1)c1ccc2[nH]c(-c3n[nH]c4ccccc34)cc2n1
output: 519

FYI, the data here is from ChEMBL document CHEMBL3399927.
